Below are log10 of IC50 values measured for human full-length BTK Kinase (Homo sapiens (Human), UniProt Q06187).
Heads up: the numbers are on a log10 scale; they represent IC50 in nM.

1. C/C=C/C(=O)N1CCC[C@@H](n2nc(-c3ccc(Oc4ccc(F)cc4F)cc3)c(C(N)=O)c2N)C1 [Example 142]
1.79
2. N#CN1CCCC(n2nc(-c3ccc(Oc4ccc(Cl)cc4)cc3)c(C(N)=O)c2N)C1 (single isomer, unassigned) [Example 14]
1.10
3. N#CN1CCCC(n2nc(-c3ccc(Oc4ccccc4)nc3)c(C(N)=O)c2N)C1 (stereo not shown) [Example 107]
2.23
4. N#CN1CCCC(n2nc(-c3ccc(Oc4ccc(F)cc4Cl)cc3)c(C(N)=O)c2N)C1 (single isomer, unassigned) [Example 36]
1.40

// lookup log10 of IC50 for N#CN1CCCC(n2nc(-c3cccc(Oc4ccc(OC(F)(F)F)c(F)c4)c3)c(C(N)=O)c2N)C1 (stereo not shown) [Example 106] 1.76

Repeat for the following compound: NC(=O)c1c(-c2ccc(Oc3ccc(F)cc3F)cc2)nn([C@@H]2CCCN(C(=O)/C=C/CO)C2)c1N [Example 151] 0.36

Repeat for the following compound: N#CN1CCCC(n2nc(-c3ccc(Oc4ccc(F)cc4)cc3)c(C(N)=O)c2N)C1 (stereo not shown) [Example 41] 0.80
